protocol-description: qHTS for Inhibitors of human tyrosyl-DNA phosphodiesterase 1 (TDP1): qHTS in cells in absence of CPT; note: nearly all actives have a fitted effect of over 55% in size
test-context: DT40 Tdp1-/- hTDP1 cells, no CPT, ATP luminescence, 48 h
Among all 420,000 compounds or so, about 64,000 (15%) were called active. Another 27% or so got no clear call; they are omitted. Calls come from the whole dose curve; as a rule, active = well fitted inhibition curve with a large enough effect; inconclusive = small, poorly fitted or top-dose-only effect; inactive = flat fitted curve, though single readings scatter. The list is a sample of the results.
Labels: yes for active, no for inactive

1. O=[N+]([O-])c1ccc(NC(=S)N2CCN(c3ccccn3)CC2)cc1 | yes
2. CC(CNC(=O)c1ccc(Br)o1)NC(=O)c1ccc(Br)o1 (stereo unspecified) | yes
3. CC(CCc1ccccc1)NC(=O)c1ccc(Br)o1 (stereo unspecified) | no
4. COc1cc([N+](=O)[O-])ccc1NC(=S)N1CCN(c2ccccn2)CC1 | no
5. O=S(=O)(NCc1ccccc1Cl)c1cnc[nH]1 | no
6. O=C(CNC(=O)c1ccc(Br)o1)Nc1ccccc1 | no
